Some compounds, each annotated with its measured Percent Effect.
tested on: Wolbachia pipientis; test: Anti-Wolbachia Cell-Based Screen; assay type: functional; parameters: scale not given: in the data most compounds retested in dose-response had high values; settings: 5 µM
Screen size: about 48,000 compounds; about 13,000 (27%) showed an effect of 50% or more. Some of the results follow.
Provide only the numeric value, understood in %.

Illustrative cases are given below, each with its answer.
{"columns": ["Compound", "Numeric result"],
 "data": [
  ["CCS(=O)(=O)N1CC[C@H]2O[C@@H](c3nnc(C)o3)CC[C@H]21", -3.387],
  ["C/C=C(\\C)CN1C[C@H](c2cccc(OC)c2)[C@@H](N)C1", 1.044],
  ["Cc1ccc(CN(CC(=O)NCC2CCOC2)c2ccc(F)cc2)o1 (stereo unspecified)", -9.674],
  ["CCOC(=O)C1CCCCN1Cc1c[nH]nc1-c1cc2ccccc2o1 (stereo unspecified)", 10.01],
  ["O=C1CC(c2ccsc2)c2snc(C(=O)O)c2N1 (stereo unspecified)", -3.117]
]}

Field: next compound
The recorded Percent Effect for `O=C(Cc1ccccc1)N1CCn2cc(Cn3cncn3)nc2C1` is 14.97

* * *

Some compounds, each annotated with its measured Percent Effect.
test system: Wolbachia pipientis; assay: Anti-Wolbachia Cell-Based Screen; format: functional; design: scale not given: in the data most compounds retested in dose-response had high values; details: 5 µM
Screen size: about 48,000 compounds; about 13,000 (27%) showed an effect of 50% or more. The list shows a part of the results.
Provide only the numeric value, understood in %.

Reading of Percent Effect for `N#Cc1cccc(CN2C[C@H](NC(=O)C3CC3)[C@H]3OCCC[C@H]32)c1.O=C(O)C(F)(F)F` with Wolbachia pipientis: 100.2

Reading of Percent Effect for N#Cc1cccc(CN(CC(=O)N2CCCC2)CC2CCCO2)c1 (stereo unspecified) with Wolbachia pipientis: 11.29

Reading of Percent Effect for OCCC1CN(c2nc(-c3cccnc3)nc3c2CCNCC3)CCO1 (stereo unspecified) with Wolbachia pipientis: -11.64

Reading of Percent Effect for `Cn1c(C2CC2)nc2c1CCN(CCS(=O)(=O)c1ccccc1)C2` with Wolbachia pipientis: -2.763

Reading of Percent Effect for CCNC(=O)N(C)C(c1cccnc1)C(C)C (stereo unspecified) with Wolbachia pipientis: -2.757

Reading of Percent Effect for `N#Cc1cccc(CN2C[C@@H](NC(=O)C3CC3)[C@H]3OCCC[C@H]32)c1` with Wolbachia pipientis: 101.9

Reading of Percent Effect for COCCCC1CCCCN1Cc1cc(F)ccc1-n1cccn1 (stereo unspecified) with Wolbachia pipientis: -9.489

Reading of Percent Effect for Cc1cc(C2CCCN(CCS(=O)(=O)c3ccccc3)C2)n[nH]1 (stereo unspecified) with Wolbachia pipientis: 111.9

Reading of Percent Effect for `CC(C)N(Cc1cccnc1)C(=O)CCSc1ccc(C#N)cc1` with Wolbachia pipientis: -11.64

Reading of Percent Effect for `Cc1cc(NC(=O)NCCc2cscn2)nn1C` with Wolbachia pipientis: -10.8

Reading of Percent Effect for `CC(C)N(Cc1ccc(C#N)cc1)C(=O)NCCNc1ncccn1` with Wolbachia pipientis: -6.799

* * *

test system: Wolbachia pipientis; test: Anti-Wolbachia Cell-Based Screen; format: functional; parameters: scale not given: in the data most compounds retested in dose-response had high values; conditions: 5 µM
Among all 48,000 compounds or so, about 13,000 (27%) showed an effect of 50% or more. The list shows a part of the results.
Quantity measured: Percent Effect
Give me the value, and tack the unit on after it.

Illustrative cases are given below, each with its answer.
{"columns": ["Compound", "Percent Effect"],
 "data": [
  ["O=C(O)C(F)(F)F.O=C([C@@H]1COC[C@H]2CN(C3CCCC3)C[C@H]21)N1CCCO1", "17.11%"],
  ["CCCc1nc(C)cc(N2CCC3(CCC(=O)N(CCO)C3)CC2)n1", "3.34%"],
  ["CC(C)=CCN1CCN(C(C)c2cccnc2)CC1 (stereo not given)", "2.838%"],
  ["CC(=O)N[C@@H]1CN(C2CCN(c3cccc(Cl)c3)CC2)C[C@H]1C(C)C", "15.95%"]
]}

Field: next compound
The recorded Percent Effect for `Cn1c(-c2ccccc2Cl)nc2cc(C(=O)NCCS(C)(=O)=O)cnc21` is 0.8241%
